Here the recorded inhibition is given for each entry.
target: Prothrombin (Homo sapiens); assay: Inhibition of human thrombin at 1 ug/ml preincubated for 10 mins followed by Ac-FVR-AMC substrate addition measured within 10 mins by fluorescence assay relative to control
Only the number, expressed in %, is required.

molecule_smiles=CCn1c(CNc2ccc(C(=N)N)cc2F)nc2cc(C(=O)N(CCC(=O)O)c3cc(C)ccn3)ccc21 endpoint_unit=% data_value=92
molecule_smiles=CCn1c(CNc2ccc(C(=N)N)cc2F)nc2cc(C(=O)N(CCC(=O)O)c3ccc(F)c(F)c3)ccc21 endpoint_unit=% data_value=93.8
molecule_smiles=CCn1c(CNc2ccc(C(=N)N)cc2F)nc2cc(C(=O)N(CCC(=O)O)c3ccc(C)cc3)ccc21 endpoint_unit=% data_value=88.2

We next turn to a different molecule, shown below.
# query: inhibition of entry "CCn1c(CNc2ccc(C(=N)N)cc2F)nc2cc(C(=O)N(CCC(=O)O)c3cc(C)cc(C)c3)ccc21" 89

---

biological target: Prothrombin (Homo sapiens, UniProt P00734); assay: Inhibition of human thrombin at 1 ug/ml preincubated for 10 mins followed by Ac-FVR-AMC substrate addition measured within 10 mins by fluorescence assay relative to control
Here the recorded inhibition is given for each entry.
Only the number, expressed in %, is required.

Take a look at these entries with their results.
molecule_smiles=CCn1c(CNc2ccc(C(=N)N)cc2F)nc2cc(C(=O)N(CCC(=O)O)c3cccc(C)n3)ccc21 system_name="Prothrombin (Homo sapiens, UniProt P00734)" endpoint_unit=% data_value=93.6
molecule_smiles=CCn1c(CNc2ccc(C(=N)N)cc2F)nc2cc(C(=O)N(CCC(=O)O)c3cc(C)ccc3C)ccc21 system_name="Prothrombin (Homo sapiens, UniProt P00734)" endpoint_unit=% data_value=93
molecule_smiles=CCn1c(CNc2ccc(C(=N)N)cc2F)nc2cc(C(=O)N(CCC(=O)O)c3cccc(C)c3)ccc21 system_name="Prothrombin (Homo sapiens, UniProt P00734)" endpoint_unit=% data_value=92.8
molecule_smiles=CCn1c(CNc2ccc(C(=N)N)cc2F)nc2cc(C(=O)N(CCC(=O)O)c3ccc(C)c(F)c3)ccc21 system_name="Prothrombin (Homo sapiens, UniProt P00734)" endpoint_unit=% data_value=87.5
molecule_smiles=CCn1c(CNc2ccc(C(=N)N)cc2F)nc2cc(C(=O)N(CCC(=O)O)c3ccc(C)cc3C)ccc21 system_name="Prothrombin (Homo sapiens, UniProt P00734)" endpoint_unit=% data_value=91.9

# query: inhibition of entry "CCn1c(CNc2ccc(C(=N)N)cc2F)nc2cc(C(=O)N(CCC(=O)O)c3ccc(F)c(C)c3)ccc21" 92.5

# query: inhibition of entry "CCn1c(CNc2ccc(C(=N)N)cc2F)nc2cc(C(=O)N(CCC(=O)O)c3cc(F)cc(F)c3)ccc21" 91.2

# query: inhibition of entry "CCn1c(CNc2ccc(C(=N)N)cc2F)nc2cc(C(=O)N(CCC(=O)O)c3ccc(F)cc3F)ccc21" 92.5

---

target: Prothrombin (Homo sapiens, UniProt P00734); assay: Inhibition of human thrombin preincubated for 10 mins followed by Ac-FVR-AMC substrate addition measured within 10 mins by fluorescence assay; details: read-out: pIC50 (converted)
Threshold check on IC50: strictly below 5 nM is 1; on or above 5 nM is -1.

molecule_smiles=CCn1c(CNc2ccc(C(=N)N)cc2F)nc2cc(C(=O)N(CCC(=O)O)c3ccc(C)cc3C)ccc21 category=-1
molecule_smiles=CCn1c(CNc2ccc(C(=N)N)cc2F)nc2cc(C(=O)N(CCC(=O)O)c3ccc(F)c(C)c3)ccc21 category=1
molecule_smiles=CCn1c(CNc2ccc(C(=N)N)cc2F)nc2cc(C(=O)N(CCC(=O)O)c3c(C)cccc3C)ccc21 category=1
molecule_smiles=CCn1c(CNc2ccc(C(=N)N)cc2F)nc2cc(C(=O)N(CCC(=O)O)c3cccc(C)n3)ccc21 category=1
molecule_smiles=CCn1c(CNc2ccc(C(=N)N)cc2F)nc2cc(C(=O)N(CCC(=O)O)c3cc(C)ccn3)ccc21 category=1

In the record for "CCn1c(CNc2ccc(C(=N)N)cc2F)nc2cc(C(=O)N(CCC(=O)O)c3ccc(F)cc3F)ccc21" , is IC50 less than 5 nM? 1

In the record for "CCn1c(CNc2ccc(C(=N)N)cc2F)nc2cc(C(=O)N(CCC(=O)O)c3cccc(C)c3)ccc21" , is IC50 less than 5 nM? -1

In the record for "CCn1c(CNc2ccc(C(=N)N)cc2F)nc2cc(C(=O)N(CCC(=O)O)c3ccc(F)c(F)c3)ccc21" , is IC50 less than 5 nM? -1

In the record for "CCn1c(CNc2ccc(C(=N)N)cc2F)nc2cc(C(=O)N(CCC(=O)O)c3cc(C)ccc3C)ccc21" , is IC50 less than 5 nM? -1

---

biological target: Prothrombin (Homo sapiens); experiment: Inhibition of human thrombin at 1 ug/ml preincubated for 10 mins followed by Ac-FVR-AMC substrate addition measured within 10 mins by fluorescence assay relative to control
Recorded Endpoint: inhibition
Include the unit right after the number.

molecule_smiles=CCn1c(CNc2ccc(C(=N)N)cc2F)nc2cc(C(=O)N(CCC(=O)O)c3c(C)cccc3C)ccc21 data_value=92.5%
molecule_smiles=CCn1c(CNc2ccc(C(=N)N)cc2F)nc2cc(C(=O)N(CCC(=O)O)c3ccc(C)c(C)c3)ccc21 data_value=91.6%

We next turn to a different compound, shown below.
# query: inhibition of entry "CCn1c(CNc2ccc(C(=N)N)cc2F)nc2cc(C(=O)N(CCC(=O)O)c3cccc(C)c3C)ccc21" 93.2%

---

Here the recorded IC50 is given for each entry.
target: UniProtKB P00734; experiment: Inhibition of human thrombin preincubated for 10 mins followed by Ac-FVR-AMC substrate addition measured within 10 mins by fluorescence assay; conditions: read-out: IC50
Only the number, expressed in nM, is required.

molecule_smiles=CCn1c(CNc2ccc(C(=N)N)cc2F)nc2cc(C(=O)N(CCC(=O)O)c3cccc(C)n3)ccc21 system_name="UniProtKB P00734" endpoint_unit=nM data_value=2.16

We next turn to a different molecule, shown below.
# query: IC50 of entry "CCn1c(CNc2ccc(C(=N)N)cc2F)nc2cc(C(=O)N(CCC(=O)O)c3ccc(C)c(C)c3)ccc21" 10.1

---

molecular target: Prothrombin (Homo sapiens, UniProt P00734); assay: Inhibition of human thrombin preincubated for 10 mins followed by Ac-FVR-AMC substrate addition measured within 10 mins by fluorescence assay; settings: read-out: IC50
Here the recorded IC50 is given for each entry.
Only the number, expressed in nM, is required.

molecule_smiles=CCn1c(CNc2ccc(C(=N)N)cc2F)nc2cc(C(=O)N(CCC(=O)O)c3c(C)cccc3C)ccc21 data_value=1.81

# query: IC50 of entry "CCn1c(CNc2ccc(C(=N)N)cc2F)nc2cc(C(=O)N(CCC(=O)O)c3ccc(F)cc3F)ccc21" 3.21

# query: IC50 of entry "CCn1c(CNc2ccc(C(=N)N)cc2F)nc2cc(C(=O)N(CCC(=O)O)c3ccc(F)c(F)c3)ccc21" 9.17

# query: IC50 of entry "CCn1c(CNc2ccc(C(=N)N)cc2F)nc2cc(C(=O)N(CCC(=O)O)c3ccc(F)c(C)c3)ccc21" 4.18

# query: IC50 of entry "CCn1c(CNc2ccc(C(=N)N)cc2F)nc2cc(C(=O)N(CCC(=O)O)c3cccc(C)c3C)ccc21" 4.92

---

Here the recorded IC50 is given for each entry.
biological target: Prothrombin (Homo sapiens, UniProt P00734); experiment: Inhibition of human thrombin preincubated for 10 mins followed by Ac-FVR-AMC substrate addition measured within 10 mins by fluorescence assay; details: read-out: IC50
Only the number, expressed in nM, is required.

Take a look at these entries with their results.
molecule_smiles=CCn1c(CNc2ccc(C(=N)N)cc2F)nc2cc(C(=O)N(CCC(=O)O)c3cc(C)ccc3C)ccc21 data_value=5.66
molecule_smiles=CCn1c(CNc2ccc(C(=N)N)cc2F)nc2cc(C(=O)N(CCC(=O)O)c3cccc(C)c3)ccc21 data_value=5.44
molecule_smiles=CCn1c(CNc2ccc(C(=N)N)cc2F)nc2cc(C(=O)N(CCC(=O)O)c3ccc(C)cc3C)ccc21 data_value=7.18

We next turn to a different compound, shown below.
# query: IC50 of entry "CCn1c(CNc2ccc(C(=N)N)cc2F)nc2cc(C(=O)N(CCC(=O)O)c3cc(C)ccn3)ccc21" 3.69
